- Test system: HaCaT cells
- Assay: In vitro cell cytotoxicity (MTT) assay on HaCaT cells
- Assay type: cell-based, human
- Conditions: 72 h incubation; MTT
Assignment: determine reported pIC50 for the given compounds.
Schema: pIC50 number; meaning minus log10 of the concentration expressed in molar units.

Field: pIC50 (HaCaT cells). Entry: Nc1ccc(Nc2ccc(Nc3ccc(Nc4ccc(N)cc4)cc3)cc2)cc1 [PPD derivative 8]
5.16

Field: pIC50 (HaCaT cells). Entry: CCCCCCOc1cc(Nc2ccc(N)cc2)ccc1N [PPD derivative 5]
4.84

Field: pIC50 (HaCaT cells). Entry: CCCCCCOc1cc(N)ccc1N [PPD derivative 4, 2-hexyloxy-1,4-diaminobenzene]
4.46

Field: pIC50 (HaCaT cells). Entry: NC1=CC(=Nc2ccc(N)cc2)C(N)=CC1=Nc1ccc(N)cc1 [Bandrowski Base, reference compound]
5.22

Field: pIC50 (HaCaT cells). Entry: Nc1ccc(Nc2ccc(N)cc2)cc1 [PPD derivative 1, 4,4′-Diaminodiphenylamine]
4.31

Field: pIC50 (HaCaT cells). Entry: CCCCCCNc1ccc(N)cc1OCCCCCC [PPD derivative 16]
3.86

Field: pIC50 (HaCaT cells). Entry: Cc1ccc(NCc2ccc(-c3ccc(Nc4ccc(N)cc4)cc3)cc2)cc1 [PPD derivative 9]
5.17

Field: pIC50 (HaCaT cells). Entry: COCc1cc(N)ccc1N [MEPPD, 2-(methoxymethyl)benzene-1,4,-diamine, reference compound]
3.26
